- target or test system: Acetylcholinesterase (Mus musculus)
- details: Brain, at 10 µM
Please provide measured inhibition for the entries that follow.
Give just the numeric value; % need not be written.

Ask: Query (molecule): "O=C(Oc1cccc(/C=C2\Cc3ccccc3C2=O)c1)c1ccc(F)cc1" ; field requested: inhibition
Result: 38.7

Ask: Another: "O=C(Oc1cccc(/C=C2\Cc3ccccc3C2=O)c1)c1ccccc1"
Result: 37.1

Ask: Another: "O=C(Oc1cccc(/C=C2\Cc3ccccc3C2=O)c1)c1cc(C(F)(F)F)cc(C(F)(F)F)c1"
Result: 53.2

Ask: Another: "O=C(Oc1cccc(/C=C2\Cc3ccccc3C2=O)c1)c1cc(Cl)cc(Cl)c1"
Result: 33.9

Ask: Another: "O=C(Oc1cccc(/C=C2\Cc3ccccc3C2=O)c1)c1cccc(CCl)c1"
Result: 56.3

// provenance: ChEMBL document CHEMBL4177716
